Each recorded value in this set is attributed to paper PMC4698195.

tested.system: UDP-N-acetylglucosamine (UDP-GlcNAc) 2-epimerase (NmSacA) (Neisseria meningitidis, UniProt A0A0U1RGY0)
Sequence (A0A0U1RGY0 whole entry): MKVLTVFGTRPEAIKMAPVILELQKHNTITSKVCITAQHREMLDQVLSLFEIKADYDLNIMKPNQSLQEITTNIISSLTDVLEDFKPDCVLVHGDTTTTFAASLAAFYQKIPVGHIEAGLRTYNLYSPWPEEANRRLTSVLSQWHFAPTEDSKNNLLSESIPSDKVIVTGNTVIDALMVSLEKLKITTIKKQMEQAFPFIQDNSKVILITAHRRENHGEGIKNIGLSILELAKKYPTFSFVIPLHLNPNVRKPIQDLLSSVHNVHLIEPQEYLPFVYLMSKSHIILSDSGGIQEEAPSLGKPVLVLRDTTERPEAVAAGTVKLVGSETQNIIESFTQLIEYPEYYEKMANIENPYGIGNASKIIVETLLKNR
measurement.name: Ki
Please give the number followed by its unit.

compound: O=c1ccn([C@@H]2O[C@H](COP(=O)(O)OP(=O)(O)O)[C@@H](O)[C@H]2O)c(=O)[nH]1 [UDP]
Ki: 0.8 mM

Consider the additional compound presented here.
Input: Find the measured Ki of CC(=O)NC1=CO[C@H](CO)[C@@H](O)[C@@H]1O [D, 2-acetamidoglucal] and report it.
Output: 14 mM
